TESTED_SYSTEM: JAK1 (recombinant purified GST-tagged catalytic domain) (Homo sapiens (Human), UniProt P23458);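 note: biochemical assay with HTRF read-out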
Sequence (P23458 875-1153): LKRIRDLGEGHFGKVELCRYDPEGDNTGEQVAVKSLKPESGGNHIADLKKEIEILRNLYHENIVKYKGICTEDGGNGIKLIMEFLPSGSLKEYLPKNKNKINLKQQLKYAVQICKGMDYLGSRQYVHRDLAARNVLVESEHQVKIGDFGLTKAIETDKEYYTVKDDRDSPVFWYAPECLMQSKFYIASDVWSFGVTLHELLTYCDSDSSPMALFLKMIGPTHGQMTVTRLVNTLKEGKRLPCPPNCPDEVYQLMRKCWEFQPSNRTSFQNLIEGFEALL
PROTOCOL_SUMMARY: biochemical
I'd appreciate it if you could supply IC50 values for the items below.
Write the number in nM without appending the unit.

Q: Input CN(CC1(C)COC1)[C@H]1CCC(n2cc(C(N)=O)c(Nc3ccc(Cl)cc3)n2)[C@@H](C#N)C1 (single isomer, unassigned) , output reported IC50.
Result: 1

Q: Input N#C[C@H]1C[C@@H](C(=O)NC2CC2)CC[C@@H]1n1cc(C(N)=O)c(Nc2ccc(Cl)cc2)n1 (single isomer, unassigned) , output reported IC50.
Result: 37

Q: Input N#C[C@H]1CC(NC(C2CC2)C2CC2)CC[C@@H]1n1cc(C(N)=O)c(Nc2ccc(S(=O)(=O)C(F)(F)F)cc2)n1 (single isomer, unassigned) , output reported IC50.
Result: 4

Q: Input N#C[C@H]1CCCC[C@@H]1n1cc(C(N)=O)c(Nc2ccc(S(=O)(=O)NCc3ccccc3)cc2)n1 (single isomer, unassigned) , output reported IC50.
Result: 0.2

Q: Input CC(C)(c1ccc(Nc2nn([C@H]3CC[C@H](O)C[C@@H]3C#N)cc2C(N)=O)cc1)C(O)C(F)(F)F (single isomer, unassigned) [Example 33-15] , output reported IC50.
Result: 0.5

Q: Input N#C[C@H]1C[C@@H](N)CCC1n1cc(C(N)=O)c(Nc2ccc(F)cc2)n1 (mixture of isomers) , output reported IC50.
Result: 1

Q: Input N#C[C@H]1C[C@@H](NC2(C(F)(F)F)CC2)CC[C@@H]1n1cc(C(N)=O)c(Nc2ccc(Cl)cc2)n1 (single isomer, unassigned) , output reported IC50.
Result: 5

Q: Input N#Cc1ccc(Nc2nn([C@H]3CC[C@H](O)C[C@@H]3C#N)cc2C(N)=O)cc1 (single isomer, unassigned) , output reported IC50.
Result: 0.5

Q: Input CC1(N[C@H]2CCC(n3cc(C(N)=O)c(Nc4ccccc4)n3)[C@@H](C#N)C2)CC1 (single isomer, unassigned) , output reported IC50.
Result: 2

Q: Input N#C[C@H]1CCC[C@H](O)C1n1cc(C(N)=O)c(Nc2ccccc2)n1 (mixture of isomers) , output reported IC50.
Result: 170

Q: Input N#C[C@@H]1CCCC[C@@H]1n1cc(C(N)=O)c(Nc2ccc(F)nc2)n1 (racemic) , output reported IC50.
Result: 33

Q: Input CO/N=C/c1ccc(Nc2nn([C@H]3CCCC[C@@H]3C#N)cc2C(N)=O)cc1 (single isomer, unassigned) , output reported IC50.
Result: 0.45

Q: Input N#C[C@H]1CC[C@@H](O)CC1n1cc(C(N)=O)c(Nc2ccccc2)n1 (mixture of isomers) , output reported IC50.
Result: 27

Q: Input CC1(C)CN([C@@H]2CC[C@H](n3cc(C(N)=O)c(Nc4ccnc(F)c4)n3)[C@@H](C#N)C2)C1 (single isomer, unassigned) , output reported IC50.
Result: 2

Q: Input N#C[C@H]1C[C@H](O)CC[C@@H]1n1cc(C(N)=O)c(Nc2ccc([C@@H](O)C(F)(F)F)cc2)n1 (single isomer, unassigned) , output reported IC50.
Result: 0.3

Q: Input N#Cc1ccc(Nc2nn([C@H]3CC[C@@H](O)C[C@@H]3C#N)cc2C(N)=O)cc1 (single isomer, unassigned) , output reported IC50.
Result: 0.55

Q: Input N#C[C@H]1C[C@@H](N2CC(O)(C(F)(F)F)C2)CC[C@@H]1n1cc(C(N)=O)c(Nc2ccc(C(F)(F)F)cc2)n1 (single isomer, unassigned) , output reported IC50.
Result: 1

Q: Input CC(C)(O)[C@H]1CC[C@H](n2cc(C(N)=O)c(Nc3ccc(Cl)cc3)n2)[C@@H](C#N)C1 (single isomer, unassigned) [Example 36-1] , output reported IC50.
Result: 0.65

Q: Input N#C[C@H]1CCCC[C@@H]1n1cc(C(N)=O)c(Nc2ccc(S(=O)(=O)NCCN3CCCC3)cc2)n1 (single isomer, unassigned) , output reported IC50.
Result: 0.5

Q: Input N#C[C@H]1C[C@@H](N2CC3(CCC3)C2)CC[C@@H]1n1cc(C(N)=O)c(Nc2ccnc(F)c2)n1 (single isomer, unassigned) , output reported IC50.
Result: 0.5

Q: Input N#C[C@H]1CCCCC1n1cc(C(N)=O)c(Nc2ccc3c(c2)CCC(=O)N3)n1 (mixture of isomers) , output reported IC50.
Result: 2

Q: Input N#C[C@H]1C[C@H](N2CCC2)CC[C@@H]1n1cc(C(N)=O)c(Nc2ccc(OC(F)(F)F)cc2)n1 (single isomer, unassigned) , output reported IC50.
Result: 2

Q: Input CN(CC(F)F)[C@H]1CC[C@H](n2cc(C(N)=O)c(Nc3ccc(S(=O)(=O)C(F)(F)F)cc3)n2)[C@@H](C#N)C1 (single isomer, unassigned) , output reported IC50.
Result: 3

Q: Input CN(C)[C@H]1CC[C@H](n2cc(C(N)=O)c(Nc3ccc(F)cc3)n2)[C@@H](C#N)C1 (single isomer, unassigned) [Example 28-129] , output reported IC50.
Result: 20
